Tested on: normal human dermal fibroblasts (NHDF)
Assay: In vitro cell viability, WST-1 assay
Assay type: cell-based
Settings: 72 h
quantity_name: IC50

[
  {
    "compound": "CCCOc1cccc2c1Nc1c(c[n+](C)c3ccccc13)S2 [Compound 6c]",
    "IC50": "> 100 µM"
  },
  {
    "compound": "C[n+]1cc2c(c3ccccc31)Nc1cc(OCc3ccccc3)ccc1S2 [Compound 6k]",
    "IC50": "> 100 µM"
  },
  {
    "compound": "C#CCOc1cccc2c1Nc1c(c[n+](C)c3ccccc13)S2 [Compound 6i]",
    "IC50": "47.5 µM"
  },
  {
    "compound": "C#CCOc1ccc2c(c1)Nc1c(c[n+](C)c3ccccc13)S2 [Compound 6h]",
    "IC50": "> 100 µM"
  },
  {
    "compound": "C#CCOc1ccc2c(c1)Sc1c[n+](C)c3ccccc3c1N2 [Compound 6g]",
    "IC50": "> 100 µM"
  }
]

Go through the items and report each one's IC50.
1. C=CCOc1cccc2c1Nc1c(c[n+](C)c3ccccc13)S2 [Compound 6f]
2. C[n+]1cc2c(c3ccccc31)Nc1c(OCc3ccccc3)cccc1S2 [Compound 6l]
3. COc1cccc2c1C(=O)c1c(O)c3c(c(O)c1C2=O)C[C@@](O)(C(=O)CO)C[C@@H]3O[C@H]1C[C@H](N)[C@H](O)[C@H](C)O1 [doxorubicin, reference compound]

1. > 100 µM
2. > 100 µM
3. 5.5 µM

* * *

Tested on: Enterococcus faecalis ATCC 29212
Experiment: MBC, agar aliquot subculture method
Format: cell-based
Conditions: ATCC29212; EF = Enterococcus faecalis
Please assign 0 (no) whenever MBC is at or above 50 µM, and 1 (yes) whenever it is below.

Some solved cases for reference:
[
  {
    "compound": "C=CCOc1ccc2c(c1)Sc1c[n+](C)c3ccccc3c1N2 [Compound 6d]",
    "assigned_category": "1 (yes)"
  },
  {
    "compound": "C=CCOc1ccc2c(c1)Nc1c(c[n+](C)c3ccccc13)S2 [Compound 6e]",
    "assigned_category": "0 (no)"
  },
  {
    "compound": "C[n+]1cc2c(c3ccccc31)Nc1cc(OCc3ccccc3)ccc1S2 [Compound 6k]",
    "assigned_category": "0 (no)"
  },
  {
    "compound": "C#CCOc1ccc2c(c1)Sc1c[n+](C)c3ccccc3c1N2 [Compound 6g]",
    "assigned_category": "0 (no)"
  },
  {
    "compound": "CCCOc1ccc2c(c1)Nc1c(c[n+](C)c3ccccc13)S2 [Compound 6b]",
    "assigned_category": "0 (no)"
  }
]

Please determine if C[n+]1cc2c(c3ccccc31)Nc1ccc(OCc3ccccc3)cc1S2 [Compound 6j] is below 50 µM in terms of MBC. 1 (yes)

Please determine if C#CCOc1ccc2c(c1)Nc1c(c[n+](C)c3ccccc13)S2 [Compound 6h] is below 50 µM in terms of MBC. 1 (yes)

Please determine if C#CCOc1cccc2c1Nc1c(c[n+](C)c3ccccc13)S2 [Compound 6i] is below 50 µM in terms of MBC. 0 (no)

Please determine if CC1(C)S[C@@H]2[C@H](NC(=O)[C@H](N)c3ccccc3)C(=O)N2[C@H]1C(=O)O [AMP, ampicillin, reference compound] is below 50 µM in terms of MBC. 1 (yes)

Cited source for all entries: paper PMC9736374
